# assay.target: T1, hu-CD74 antigen (R&D SYSTEMS catalog #3590-CD-050) (human, UniProt P04233-2 73-232, limits assumed)
# T1 construct: Bought antigen; also called rhCD74; human CD74
# T1 sequence (looked up): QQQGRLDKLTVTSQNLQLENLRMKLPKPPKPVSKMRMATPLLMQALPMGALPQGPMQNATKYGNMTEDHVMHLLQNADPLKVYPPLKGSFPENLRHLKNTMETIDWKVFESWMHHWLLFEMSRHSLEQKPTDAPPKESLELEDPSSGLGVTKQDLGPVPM
# experiment.notes: SPR (Biacore T200), IgG captured on anti-human Fc, rhCD74 analyte
property.measured: koff (s⁻¹)
Field: numeric (s⁻¹). Do not append units.

HC 1251_B08 (g)/LC 1337_A10 (wt) (antibody, human IgG1, kappa, V domains shown, IgG format) VH: QVQLVESGGGVVQPGRSLRLSCAASGFNFSDYGMHWVRQAPGKGLEWVAVIWYDGSISYYADSVKGRFTISRDNSKNTLYLQMNSLRAEDTAVYYCARGGTVEHGAVYGTDVWGQGTTVTVSS VL: DIQMTQSPSSLSASVGDRVTITCRASQGISSWVAWYQQKPEKAPKSLIYGSSRLQSGVPSRFSGSGSGTDFTLTISSLQPEDFATYYCQQYNTYPLTFGGGTKVEIKR :: 0.00012
HC 1251_A06 (wt)/LC 1275_C10 (g) (antibody, human IgG1, kappa, V domains shown, IgG format) VH: QVQLVESGGGVVQPGRSLRLSCAASGFDFSSYGMHWVRQAPDKGLEWVAVIWDDGSDRYYADSVKGRFTISRDNSKNTLYLQMNSLRAEDTAVYYCARGGTRVLGAIHGTDVWGQGTTVTVSS VL: DIQMTQSPSSVSASVGDRVTITCRASQGVSSWLAWYQQKPGKAPKLLIYSARYLQSGVPSRFSGSGSGTDFTLTISSLQPEDFATYYCQQYNLYPLTFGGGTKVEIKR :: 0.000166
HC 1251_A06 (g)/LC 1337_A10 (g) (antibody, human IgG1, kappa, V domains shown, IgG format) VH: QVQLVESGGGVVQPGRSLRLSCAASGFDFSSYGMHWVRQAPGKGLEWVAVIWDDGSDRYYADSVKGRFTISRDNSKNTLYLQMNSLRAEDTAVYYCARGGTRVLGAIHGTDVWGQGTTVTVSS VL: DIQMTQSPSSVSASVGDRVTITCRASQGISSWVAWYQQKPGKAPKLLIYGSSRLQSGVPSRFSGSGSGTDFTLTISSLQPEDFATYYCQQYNTYPLTFGGGTKVEIKR :: 0.000148
HC 1251_B08 (wt)/LC 1337_A07 (wt) (antibody, human IgG1, kappa, V domains shown, IgG format) VH: QVQLVESGGGVVQPGRSLRLSCAASGFNFSDYGMHWVRQAPDKGLEWVAVIWYDGSISYYADSVKGRFTISRDNSKNTLYLQMNSLRAEDTAVYYCARGGTVEHGAVYGTDVWGQGATVTVSS VL: DIQMTQSPSSLSASVGDRVTITCRASQGISSWVAWYQQKPEKAPKSLIYGASRLQSGVPSRFSGSGSGTDFTLTISSLQPEDFATYYCQQYHTYPLTFGGGTKVEIKR :: 8.01e-05

Now examine the next entry.
Please report the recorded koff for HC 1251_A06 (g)/LC 1337_A10 (wt) (antibody, human IgG1, kappa, V domains shown, IgG format) VH: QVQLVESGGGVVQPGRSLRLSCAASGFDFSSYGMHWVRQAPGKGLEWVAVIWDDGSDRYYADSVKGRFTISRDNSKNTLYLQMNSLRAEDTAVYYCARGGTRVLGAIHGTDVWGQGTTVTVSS VL: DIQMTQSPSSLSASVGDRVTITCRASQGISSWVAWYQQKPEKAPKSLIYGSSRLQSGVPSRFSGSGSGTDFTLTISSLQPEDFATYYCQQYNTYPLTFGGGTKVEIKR .
9.03e-05
